Taken from ChEMBL document CHEMBL3758154.

- Test system: Plasmodium falciparum
- Assay summary: Antiplasmodial activity against chloroquine-resistant Plasmodium falciparum Dd2 assessed as inhibition of parasite growth after 72 hrs by DAPI staining-based confocal microscopic analysis
- Type: functional, organism-based
- Assay conditions: Dd2, 72 h
pIC50: −log10 of the molar value.
Each entry gets NOT MET if its pIC50 stays under 8, and MET if its pIC50 is 8 or above.

Is pIC50 at least 8? Consider CC(C)=CCC/C(C)=C/COc1ccc(/C=C/C(=O)c2ccc(O)cc2O)cc1
NOT MET

State whether the measured pIC50 reaches 8, counting equality as reaching it, for COc1ccc(C[C@H](N)C(=O)N[C@H]2[C@@H](O)[C@H](n3cnc4c(N(C)C)ncnc43)O[C@@H]2CO)cc1
NOT MET

Is reported pIC50 greater than or equal to 8 here: C[C@H]1[C@H](OC(=O)CCC(=O)O)O[C@@H]2O[C@@]3(C)CC[C@H]4[C@H](C)CC[C@@H]1[C@@]24OO3 [ARTESUNATE]
MET

Identify whether the reported pIC50 of the following compound is 8 or greater: COc1cc2c(cc1OC)[C@]1(O)C(=O)c3ccc4c(c3O[C@@H]1CO2)C=CC(C)(C)O4
NOT MET

I'd appreciate it if you could say whether C[C@H]1[C@@H](O)O[C@@H]2O[C@@]3(C)CC[C@H]4[C@H](C)CC[C@@H]1[C@@]24OO3 has pIC50 at least equal to 8.
MET
